System: HL-60
test.details: Induction of human HL60 cell differentiation in presence of 1 x 10^-10 M RAR agonist Am80
Assay type: functional, cell-based
The source made the active and inactive calls. The calls are words filed in the database; no cut-off is given here.
Lab note: assign the record to one of class 1 = active, class 0 = inactive

Prompt: What call does the record list for "CCCN(c1ccc(/C=C/C(=O)O)cc1)c1ccc2c(c1)C(C)(C)CCC2(C)C" ?
Response: class 1

Prompt: Same again, this time with "CCCN(c1ccc(C(=O)O)cc1)c1ccc2c(c1)C(C)(C)CCC2(C)C"
Response: class 1

Prompt: Same again, this time with "CCCN(c1ccc(C(=O)O)cc1)c1cc2c(cc1C)C(C)(C)CCC2(C)C"
Response: class 1

Prompt: Same again, this time with "CCCN(c1ccc(CCC(=O)O)cc1)c1ccc2c(c1)C(C)(C)CCC2(C)C"
Response: class 1

Prompt: Same again, this time with "CN(c1ccc(CCC(=O)O)cc1)c1ccc2c(c1)C(C)(C)CCC2(C)C"
Response: class 1

Prompt: Same again, this time with "CCCN(c1ccc(/C=C/C(=O)O)cc1)c1cc2c(cc1C)C(C)(C)CCC2(C)C"
Response: class 1

Prompt: Same again, this time with "CN(c1ccc(/C=C/C(=O)O)cc1)c1ccc2c(c1)C(C)(C)CCC2(C)C"
Response: class 1
